Source of measurements: ChEMBL document CHEMBL3880431

Assay: Lipophilicity, log P of the compound
Type: physicochemical
Conditions: octanol/water; read-out: logP
// returns class 0 unless logP is strictly below 3, in which case class 1

mol: NCCNS(=O)(=O)c1cccc(C(=O)O)c1
group label: class 1

mol: O=C(Cc1ccc(Cl)cc1)N/N=C/c1c[nH]c2ccccc12
group label: class 0

mol: O=C(O)Cc1c(O)c2c(c(O)c1Cl)C(=O)c1ccccc1C2=O
group label: class 1

mol: C(=N\Nc1nc(-c2cccnc2)cs1)/c1cccnc1
group label: class 0

mol: O=C(O)CSc1ncnc2ccccc12
group label: class 1

mol: CC(=O)Oc1ccc(-c2cccc(C(=O)O)c2)cc1
group label: class 0

mol: COc1ccc(NC(=O)CSc2nnc(C)n2-c2ccc(C)cc2)cc1
group label: class 0

mol: NC(=O)NC(=O)C[n+]1ccc(C(N)=O)cc1
group label: class 1

mol: CNCc1ccccc1Sc1cccc(OC)c1
group label: class 0

mol: Cc1nc(NCCCC(=O)O)c2ccccc2n1
group label: class 1

mol: O=C(O)c1cnc2c(ccc3ccccc32)c1O
group label: class 1

mol: N#CCc1ccc(NC2=NS(=O)(=O)c3ccccc32)cc1
group label: class 1

mol: O=C(Cc1n[nH]c(=O)[nH]c1=O)N/N=C/c1cccc([N+](=O)[O-])c1
group label: class 1

mol: Nc1nnc(CCN2C(=O)c3ccccc3C2=O)s1
group label: class 1

====

Test: Solubility of the compound in methanol
Format: physicochemical

compound: CN(C)CCN(C)Cc1cccc2ccccc12
solubility: Insoluble
--
compound: N#CCc1ccc(NC2=NS(=O)(=O)c3ccccc32)cc1
solubility: Insoluble
--
compound: Cc1ccc(NC(=O)c2cnccn2)cc1Cl
solubility: Insoluble
--
compound: COc1cc(/C=N/Cc2ccco2)ccc1O
solubility: Soluble
--
compound: O=C(NCc1ccco1)c1cc(C(=O)NCc2ccco2)cc([N+](=O)[O-])c1
solubility: Soluble
--
compound: CN(C)c1ccc(/C=N/NC(=N)N)cc1
solubility: Soluble
--
compound: CCc1cc(=O)oc2cc(OCC(N)=O)ccc12
solubility: Insoluble
--
compound: O=C(CNC(=O)c1cccnc1)N/N=C/c1ccccn1
solubility: Soluble
--
compound: CCN1CCN(CCN)CC1
solubility: Soluble
--
compound: C=CCNC(=O)C(=O)Nc1ccc(C(C)C)cc1
solubility: Insoluble
--
compound: Cc1cc(C)nc(NC(=N)Nc2ccc(C(=O)O)cc2)n1
solubility: Soluble
--
compound: O=C(NNC(=O)c1ccncc1)c1ccncc1
solubility: Soluble
--
compound: O=C(O)/C=C\C(=O)Nc1ccc(OCC(=O)O)cc1
solubility: Soluble
--
compound: CN(CC(=O)O)c1nc2ccc([N+](=O)[O-])cc2s1
solubility: Soluble
--
compound: Cc1c(OC(C)C(=O)O)ccc2c3c(c(=O)oc12)CCC3 (stereo unspecified)
solubility: Insoluble
--
compound: O=[N+]([O-])c1cccc(/C=N/Nc2ccc(S(=O)(=O)O)cc2)c1
solubility: Insoluble
--
compound: Cc1ccc(CN2CCN(Cc3ccccc3)CC2)cc1
solubility: Insoluble
--
compound: O=C(O)c1cc(-c2cccnc2)nc2ccccc12
solubility: Insoluble
--
compound: CCc1ccc2[nH]c3nc(N/N=C/c4ccc(Cl)cc4)nnc3c2c1
solubility: Insoluble
--
compound: Cc1cccc(NC(=O)c2ccc(C(=O)Nc3cccc(C)n3)cc2)n1
solubility: Insoluble
--
compound: O=C(Oc1ccc(OC(=O)c2ccco2)cc1)c1ccco1
solubility: Insoluble
--
compound: O=C(O)c1ccc2c(c1)C(=O)N(c1ccc(Cl)cc1)C2=O
solubility: Soluble
--
compound: CCN(CC)c1ccc(/C=N/n2nnnc2N)c(O)c1
solubility: Soluble
--
compound: O=C(O)c1ccc2c(c1)C(=O)N(CCO)C2=O
solubility: Soluble
--
compound: CN1CCN(CCCn2cnc3c2c(=O)n(C)c(=O)n3C)CC1
solubility: Soluble
--
compound: Nc1nonc1-c1noc(-c2cccnc2O)n1
solubility: Insoluble
